From: the supplement of paper PMC7125110

B1: glmS ribozyme (parent)
chain: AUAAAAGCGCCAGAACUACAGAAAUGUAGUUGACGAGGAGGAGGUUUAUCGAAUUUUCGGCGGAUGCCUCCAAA

Variants of: B1
EXPERIMENT: self-cleavage kobs at 640 uM GlcN6P; higher = faster cleavage; RNA array
DETAILS: with glucosamine-6-phosphate
Fewer inactive variants are shown than the library holds.
READOUT TYPE: self-cleavage kobs at 640 uM GlcN6P

- VARIANT NOTATION: "G32U A33U U56G"
  self-cleavage kobs at 640 uM GlcN6P: "< 1e-05 s⁻¹"
- VARIANT NOTATION: "G9C U49A"
  self-cleavage kobs at 640 uM GlcN6P: "< 1e-05 s⁻¹"
- VARIANT NOTATION: "U57G G59U"
  self-cleavage kobs at 640 uM GlcN6P: "< 1e-05 s⁻¹"
- VARIANT NOTATION: "G9U G13A"
  self-cleavage kobs at 640 uM GlcN6P: "< 1e-05 s⁻¹"

Can you give me self-cleavage kobs at 640 uM GlcN6P for all of these, one by one?
1. A53G C70G
2. A33G C50G C68G
3. U57A U65C
4. U49A C50G U57A C67A C71A
5. C11A U45G
6. A12C G41A A42U G51C C68G C70U
7. C10U G13A U45G U49C

["0.000196 s⁻¹", "0.00023 s⁻¹", "< 1e-05 s⁻¹", "0.000357 s⁻¹", "< 1e-05 s⁻¹", "< 1e-05 s⁻¹", "< 1e-05 s⁻¹"]

Can you give me self-cleavage kobs at 640 uM GlcN6P for all of these, one by one?
1. A15C A48U C68U
2. C11A A14G G41U G51C
3. U46A C50G C58G
4. U45G U46C C71U
5. A12C U56A C67A U69G
6. A12C G35A A36C U56G G60C
7. G35C G44C
8. C10U G63C U65G C70A C71A

["< 1e-05 s⁻¹", "< 1e-05 s⁻¹", "< 1e-05 s⁻¹", "0.000925 s⁻¹", "0.00447 s⁻¹", "< 1e-05 s⁻¹", "< 1e-05 s⁻¹", "0.000118 s⁻¹"]

Can you give me self-cleavage kobs at 640 uM GlcN6P for all of these, one by one?
1. G7C A12G A36C
2. C34U G37U

1. < 1e-05 s⁻¹
2. < 1e-05 s⁻¹

Find the recorded self-cleavage kobs at 640 uM GlcN6P belonging to A48C C67A and report it.
4.27e-05 s⁻¹
